Target: T1, His6-KstRMtb (KstR) (Mycobacterium tuberculosis H37Rv, UniProt P96856 22-220)
T1 sequence: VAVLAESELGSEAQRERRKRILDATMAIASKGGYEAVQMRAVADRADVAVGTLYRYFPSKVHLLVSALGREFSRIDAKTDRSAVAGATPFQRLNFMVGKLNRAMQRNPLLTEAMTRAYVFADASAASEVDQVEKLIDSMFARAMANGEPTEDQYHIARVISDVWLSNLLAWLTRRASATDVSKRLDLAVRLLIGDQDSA
Test: EMSA
Readout Kind: binding result

1) Rv0940c probe (dsDNA) DNA 1: GTCAAATTAGAACACGTTCTAATCTCGTT DNA 2: AACGAGATTAGAACGTGTTCTAATTTGAC    binds
2) Rv3573c/Rv3574 (kstR) 29 bp probe (dsDNA) DNA 1: TGCCCACTAGAACGTGTTCTAATAGTGCT DNA 2: AGCACTATTAGAACACGTTCTAGTGGGCA    binds
3) Rv3545c/Rv3546 probe (dsDNA) DNA 1: ATAGTAATGAAACGTGTTCTAGCCTGGCC DNA 2: GGCCAGGCTAGAACACGTTTCATTACTAT    binds
